# Tested On: P dimer VA387 (Human calicivirus NLV/VA98387/1998, UniProt Q913Z3)
# Sequence (Q913Z3 222-539): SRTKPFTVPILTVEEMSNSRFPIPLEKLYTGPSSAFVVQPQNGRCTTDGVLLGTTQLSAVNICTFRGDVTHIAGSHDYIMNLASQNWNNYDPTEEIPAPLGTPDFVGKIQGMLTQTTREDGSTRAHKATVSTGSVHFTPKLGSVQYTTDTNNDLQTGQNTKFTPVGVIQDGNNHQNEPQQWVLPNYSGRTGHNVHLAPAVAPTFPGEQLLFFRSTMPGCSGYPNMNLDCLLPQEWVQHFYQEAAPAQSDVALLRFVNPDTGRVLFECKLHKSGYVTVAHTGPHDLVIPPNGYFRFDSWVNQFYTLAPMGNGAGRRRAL
# Method: Direct ESI-MS assay
# Condition Info: n = 3
Readout Name: pKd
For clarity, pKd is expressed as the negative log10 of concentration in mol/L.

CC(=O)N[C@H]1[C@H](O[C@@H]2[C@H](O)[C@@H](O)[C@H](O[C@H]3[C@H](O)[C@@H](O)C(O)O[C@@H]3CO)O[C@@H]2CO)O[C@H](CO)[C@H](O)[C@@H]1O[C@@H]1O[C@H](CO)[C@H](O)[C@H](O[C@]2(C(=O)O)C[C@H](O)[C@@H](NC(C)=O)[C@H]([C@H](O)[C@H](O)CO)O2)[C@H]1O (stereo partly drawn) : 2.26

Lookup: pKd / P dimer VA387 (Human calicivirus NLV/VA98387/1998, UniProt Q913Z3) / CC(=O)N[C@H]1[C@H](O[C@@H]2[C@H](O[C@]3(C(=O)O)C[C@H](O)[C@@H](NC(C)=O)[C@H]([C@H](O)[C@H](O)CO)O3)[C@@H](O)[C@H](O[C@H]3[C@H](O)[C@@H](O)C(O)O[C@@H]3CO)O[C@@H]2CO)O[C@H](CO)[C@H](O)[C@@H]1O[C@@H]1O[C@H](CO)[C@H](O)[C@H](O)[C@H]1O (stereo partly drawn)
2.54

---

# Tested On: P dimer VA115 (Human calicivirus NLV/VA98115/1998, UniProt Q91H12)
# Sequence (Q91H12 227-545): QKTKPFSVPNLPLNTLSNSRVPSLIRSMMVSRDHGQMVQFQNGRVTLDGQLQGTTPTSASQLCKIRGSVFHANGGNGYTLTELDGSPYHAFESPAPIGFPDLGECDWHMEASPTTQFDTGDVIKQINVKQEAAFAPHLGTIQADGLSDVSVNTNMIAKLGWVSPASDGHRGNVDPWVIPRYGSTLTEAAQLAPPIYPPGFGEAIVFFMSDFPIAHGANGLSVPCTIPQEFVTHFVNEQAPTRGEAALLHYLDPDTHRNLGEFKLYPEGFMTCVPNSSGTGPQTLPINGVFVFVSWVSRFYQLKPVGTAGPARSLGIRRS
# Method: Direct ESI-MS assay
# Condition Info: n = 3
Kd listing for selected molecules.

Observe how each entry below is paired with its result.
CC(=O)N[C@H]1[C@H](O[C@@H]2[C@H](O[C@]3(C(=O)O)C[C@H](O)[C@@H](NC(C)=O)[C@H]([C@H](O)[C@H](O)CO)O3)[C@@H](O)[C@H](O[C@H]3[C@H](O)[C@@H](O)C(O)O[C@@H]3CO)O[C@@H]2CO)O[C@H](CO)[C@H](O)[C@@H]1O[C@@H]1O[C@H](CO)[C@H](O)[C@H](O[C@]2(C(=O)O)C[C@H](O)[C@@H](NC(C)=O)[C@H]([C@H](O)[C@H](O)CO)O2)[C@H]1O (stereo partly shown) : 3120 µM
CC(=O)NC1C(O)CC(OC2C(O)C(OC3C(CO)OC(O)C(O)C3O)OC(CO)C2OC2OC(CO)C(O)C(OC3OC(CO)C(O)C(O)C3OC3OC(C)C(O)C(O)C3O)C2NC(C)=O)(C(=O)O)OC1C(O)C(O)CO (stereo not shown) : 1670 µM
CC(=O)N[C@H]1[C@H](O[C@@H]2[C@H](O[C@]3(C(=O)O)C[C@H](O)[C@@H](NC(C)=O)[C@H]([C@H](O)[C@H](O)CO)O3)[C@@H](O)[C@H](O[C@H]3[C@H](O)[C@@H](O)C(O)O[C@@H]3CO)O[C@@H]2CO)O[C@H](CO)[C@H](O)[C@@H]1O (stereo partly shown) : 1430 µM

Next molecule, Kd to be filled in.
Lookup: Kd / P dimer VA115 (Human calicivirus NLV/VA98115/1998, UniProt Q91H12) / CC(=O)NC1C(O)CC(OC(CO)C(O)C2OC(OC(CO)C(O)C3OC(OC4C(O)C(CO)OC(OC5C(CO)OC(O)C(O)C5O)C4O)(C(=O)O)CC(O)C3NC(C)=O)(C(=O)O)CC(O)C2NC(C)=O)(C(=O)O)OC1C(O)C(O)CO (stereo not shown)
3230 µM

---

# Tested On: P dimer VA115 (Human calicivirus NLV/VA98115/1998, UniProt Q91H12)
# Method: Direct ESI-MS assay
# Condition Info: n = 3
Readout Name: Kd

Observe how each entry below is paired with its result.
CC(=O)N[C@H]1[C@H](O[C@@H]2[C@H](O)[C@@H](O)[C@H](O[C@H]3[C@H](O)[C@@H](O)C(O)O[C@@H]3CO)O[C@@H]2CO)O[C@H](CO)[C@H](O)[C@@H]1O[C@@H]1O[C@H](CO)[C@H](O)[C@H](O[C@]2(C(=O)O)C[C@H](O)[C@@H](NC(C)=O)[C@H]([C@H](O)[C@H](O)CO)O2)[C@H]1O (stereo partly shown) [GM1b] : 2080 µM
CC(=O)N[C@H]1[C@H]([C@H](O)[C@H](O)CO)O[C@@](O[C@H]2[C@@H](O)[C@@H](CO)O[C@@H](O[C@H]3[C@H](O)[C@@H](O)C(O)O[C@@H]3CO)[C@@H]2O)(C(=O)O)C[C@@H]1O (stereo partly shown) [GM3] : 769 µM
CC(=O)N[C@H]1[C@H](O[C@@H]2[C@H](O[C@]3(C(=O)O)C[C@H](O)[C@@H](NC(C)=O)[C@H]([C@H](O)[C@@H](CO)O[C@]4(C(=O)O)C[C@H](O)[C@@H](NC(C)=O)[C@H]([C@H](O)[C@H](O)CO)O4)O3)[C@@H](O)[C@H](O[C@H]3[C@H](O)[C@@H](O)C(O)O[C@@H]3CO)O[C@@H]2CO)O[C@H](CO)[C@H](O)[C@@H]1O (stereo partly shown) [GD2] : 1430 µM

Dear colleague, I am looking for the recorded Kd of the following molecule: CC(=O)NC1C(OC2C(CO)OC(OC3C(CO)OC(O)C(O)C3O)C(O)C2OC2(C(=O)O)CC(O)C(NC(C)=O)C(C(O)C(CO)OC3(C(=O)O)CC(O)C(NC(C)=O)C(C(O)C(CO)OC4(C(=O)O)CC(O)C(NC(C)=O)C(C(O)C(O)CO)O4)O3)O2)OC(CO)C(O)C1O (stereo not shown) [GT2]
4350 µM

---

Ka,int P dimer VA387 listing for selected compounds.
# Tested on: NoV VA387 P dimer
# Method: Direct ESI-MS assay, NoV VA387 P dimer
# Design: species or system human NoV VA387 (GII.4)
# Condition Info: intrinsic (per binding site) association constant; aqueous ammonium acetate (200 mM), pH 7, 25 °C

Observe how each entry below is paired with its result.
CC(=O)N[C@H]1[C@H](O[C@@H]2[C@H](O[C@]3(C(=O)O)C[C@H](O)[C@@H](NC(C)=O)[C@H]([C@H](O)[C@H](O)CO)O3)[C@@H](O)[C@H](O[C@H]3[C@H](O)[C@@H](O)C(O)O[C@@H]3CO)O[C@@H]2CO)O[C@H](CO)[C@H](O)[C@@H]1O (stereo partly drawn) [GM2] : 360 ± 90 M^–1
CC(=O)NC1C(O)CC(OC2C(O)C(OC3C(CO)OC(O)C(O)C3O)OC(CO)C2OC2OC(CO)C(O)C(OC3OC(CO)C(O)C(O)C3OC3OC(C)C(O)C(O)C3O)C2NC(C)=O)(C(=O)O)OC1C(O)C(O)CO (stereo not drawn) [fucosyl-GM1] : 460 ± 150 M^–1

Next compound, Ka,int P dimer VA387 to be filled in.
Dear colleague, I am looking for the recorded Ka,int P dimer VA387 of the following compound: CC(=O)N[C@H]1[C@H](O[C@@H]2[C@H](O[C@]3(C(=O)O)C[C@H](O)[C@@H](NC(C)=O)[C@H]([C@H](O)[C@H](O)CO)O3)[C@@H](O)[C@H](O[C@H]3[C@H](O)[C@@H](O)C(O)O[C@@H]3CO)O[C@@H]2CO)O[C@H](CO)[C@H](O)[C@@H]1O[C@@H]1O[C@H](CO)[C@H](O)[C@H](O[C@]2(C(=O)O)C[C@H](O)[C@@H](NC(C)=O)[C@H]([C@H](O)[C@H](O)CO)O2)[C@H]1O (stereo partly drawn) [GD1a]
<100 M^–1

---

# Tested On: P dimer VA387 (Human calicivirus NLV/VA98387/1998)
# Method: Direct ESI-MS assay
# Condition Info: n = 3
Kd listing for selected compounds.
Report only the number, with the unit µM understood.

CC(=O)N[C@H]1[C@H]([C@H](O)[C@H](O)CO)O[C@@](O[C@H]2[C@@H](O)[C@@H](CO)O[C@@H](O[C@H]3[C@H](O)[C@@H](O)C(O)O[C@@H]3CO)[C@@H]2O)(C(=O)O)C[C@@H]1O (some centres unmarked) [GM3] : 667

Dear colleague, I am looking for the recorded Kd of the following compound: CC(=O)NC1C(O)CC(OC2C(O)C(OC3C(CO)OC(O)C(O)C3O)OC(CO)C2OC2OC(CO)C(O)C(OC3OC(CO)C(O)C(O)C3OC3OC(C)C(O)C(O)C3O)C2NC(C)=O)(C(=O)O)OC1C(O)C(O)CO (centres unmarked) [fucosyl-GM1]
2170

Value source: paper PMC4160279
